# Tested on: TK-10 renal
# assay-summary: NCI tumour cell line growth inhibition, 48 h
*1 amine or outer side, *2 acyl side, *3 side chain or, on linkers, in order; H or OH if unused. Where a SMILES comes first, the peptide text is derived from it. Bridges are numbered along the chain shown (N, C = ends). [ ]: non-standard residue; d: D form. ξ: configuration not given here. X35 = CC[C@H](C)[C@@H](N[*:1])[C@@H](O)CC(=O)O[C@H](C(=O)[C@H](C)C(=O)[*:2])C(C)C; NMeY = CN[C@@H](Cc1ccc(O)cc1)C(=O)O; dNMeL = CN[C@H](CC(C)C)C(=O)O; ξΔPro = O=C(O)C1C=CCN1

compound	TGI
CCOC(=O)c1c2c(n(Cc3ccccc3)c1C)-c1nc(Cc3ccccc3)[nH]c1C(=O)C2=O	3.08 µM
Clc1ccc(-c2c(C3=NCCN3)nnn2-c2ccccc2)cc1	> 100 µM
O=C1CCN2CCC(=O)c3c2c(cc2ccccc32)N1	> 100 µM
O=C1/C(=C/c2ccc(O)cc2)CCC1CNc1ccccc1 (stereo not given)	24.3 µM
CCOC(=O)CCC(NC(=O)OCc1ccccc1)C(=O)NC(CCC(=O)OCC)C(=O)NC(CCC(=O)OCC)C(=O)NNC(=O)OC(C)(C)C (stereo not given)	> 100 µM
COC(=O)/C=C1\C(=O)C=C2[C@@H]3C[C@H]4C[C@H](CC[C@@]4(C)N21)C3(C)NC(C)=O (stereo not given in full)	33.9 µM
COc1cc2c(cc1O)CCN(C)[C@H]2Cc1ccc(Oc2c(O)c(OC)cc3c2C[C@H]2c4c(c(OC)c(OC)c(OC)c4-3)CCN2C)cc1	11.3 µM
CCCCCCNC(=O)n1cc(F)c(=O)[nH]c1=O	22.7 µM
O=C(O)Cc1ccccc1CCc1ccccc1Cl	> 100 µM
COc1ccc2ccccc2c1CN1CCOCCOCCN(Cc2c(OC)ccc3ccccc23)CCOCCOCC1	> 100 µM
COC(=O)[C@](C)(Cc1ccccc1)NC(=O)[C@@H](C)N1[C@@H](c2ccccc2)COC1(C)C	> 100 µM
CC[C@H](C)[C@H]1NC(=O)[C@@H](NC(=O)[C@@H](CC(C)C)N(C)C(=O)C2C=CCN2)[C@@H](C)OC(=O)[C@H](Cc2ccc(OC)cc2)N(C)C(=O)[C@@H]2CCCN2C(=O)[C@H](CC(C)C)NC(=O)[C@@H](C)C(=O)[C@H](C(C)C)OC(=O)C[C@@H]1O (stereo not given in full) (H-[ξΔPro][dNMeL]T[X35]LP[NMeY](Me); ester 3-C)	0.0516 µM
COc1cc(CNC(=S)CCCCCCCCCCC(C)C)ccc1O	> 100 µM
CC1CN=C(c2ccc(CN3CCC(C4CCN(Cc5ccc(C6=NCC(C)N6)cc5)CC4)CC3)cc2)N1 (stereo not given)	57.5 µM
CNC(=O)N(CCC#N)CCCN(C(=O)N(C)C)c1ccccc1	> 100 µM
O=C(O)CCSC1=NCCN1	> 100 µM
Nc1nc(N)nc(CC(=O)O)n1	> 100 µM
O=c1[nH]c2cc([N+](=O)[O-])c(Nc3c4ccccc4nc4ccccc34)c([N+](=O)[O-])c2[nH]1	6.85 µM
COC(=O)C1CC23C=CCN4CC(C2C)C2(c5ccccc5NC12)C43 (stereo not given)	> 100 µM
O=NN1CCCS1(=O)=O	> 100 µM
NNS(=O)(=O)c1cc(C(=O)O)cc(C(=O)O)c1	> 100 µM
CC(=O)c1cc(-c2ccccc2N)n(-c2ccc3c(c2)OCO3)c1C	> 100 µM
CC(C(=O)O)c1ccc(-c2ccccc2)c(F)c1 (stereo not given)	> 100 µM
COc1ccccc1NC(=O)C1=C(C)NC(C)=C(C(=O)Nc2ccccc2OC)C1c1ccc(N(C)C)cc1	> 100 µM
CC(C)(C)C(=O)N1CCN(C=O)C1=S	> 100 µM
O=c1c2cc(Br)ccc2ncn1COCc1ccccc1	> 100 µM
C=CCOC1(CC=C)C(=O)OC2C(O)COC21O (stereo not given)	> 100 µM
CS(=O)(=O)NNS(=O)(=O)c1ccc(Cl)cc1	> 100 µM
CCCCCCCCCCCCCCCCCCNC(=O)OCC(CNS(=O)(=O)CCC[n+]1cccc2ccccc21)COC (stereo not given)	31.1 µM
COC(=O)c1cc(C)ccc1C1CN=NC12Cc1c(C)cc(C)cc1C2=O (stereo not given)	82.5 µM
COC(=O)c1cc(C)ccc1/C=C1\Cc2c(C)cc(C)cc2C1=O	40 µM
COc1ccc(NC(=O)CC(=O)N2N=C(N(c3ccccc3)c3ccccc3)CC2c2ccccc2)cc1 (stereo not given)	> 100 µM
O=C(CSc1nc(-c2ccccc2)c(-c2ccccc2)[nH]1)NNC(=S)Nc1ccccc1	> 100 µM
CC[C@H](Nc1nc(N)nc(C2CC2)c1C#N)c1nc2cccc(NCc3ccc(C(=O)NO)cc3)c2c(=O)n1-c1ccccc1	30.3 µM
O=c1nc2ccc3sc4ccccc4c(=O)c3n2c(=O)[nH]1	> 100 µM
Clc1ccc2ns[s+]c2c1	> 61.1 µM
O=C(NCCCCCCO)c1cccc2cc3ccccc3nc12	34.6 µM
Cc1ccc2sc3ccc(N)cc3c(=O)c2c1	> 100 µM
CCCCNC(=O)Oc1ccc(/C(=C(/CC)Cc2ccccc2)c2ccc(OCCN3CCCCCC3)cc2)cc1	90.5 µM
Nn1c(Sc2nc3ccccc3c(=O)n2N)nc2ccccc2c1=O	42.2 µM
